target: UniProtKB P0DTD1; experiment: biochemical; conditions: read-out: %inhibition
Where a name gives a salt, the structure may show the parent alone.
Use 8% as the dividing line for inhibition at 100 µM, with the line itself on the 1.0 side and lower values as 0.0.

{"compound": "C[C@@H](O[C@H]1OCCN(Cc2nn(P(=O)(O)O)c(=O)[nH]2)[C@H]1c1ccc(F)cc1)c1cc(C(F)(F)F)cc(C(F)(F)F)c1 [Fosaprepitant dimeglumine salt]", "qualitative-label": 0.0}
{"compound": "CCc1cc2c(cc1N1CCC(N3CCOCC3)CC1)C(C)(C)c1[nH]c3cc(C#N)ccc3c1C2=O [Alectinib hydrochloride]", "qualitative-label": 1.0}
{"compound": "CC(=O)S[C@@H]1CC2=CC(=O)CC[C@]2(C)[C@H]2CC[C@@]3(C)[C@@H](CC[C@@]34CCC(=O)O4)[C@H]12", "qualitative-label": 0.0}
{"compound": "Cc1cccc(C)c1N(CC(=O)Nc1ccc(-c2ncon2)cc1)C(=O)C1CCS(=O)(=O)CC1", "qualitative-label": 1.0}
{"compound": "Nc1ccccc1NC(=O)c1ccc(CNC(=O)OCc2cccnc2)cc1", "qualitative-label": 1.0}
{"compound": "Nc1c2ccccc2nc2ccccc12", "qualitative-label": 0.0}

* * *

biological target: SARS-CoV-2 Mac1 (Severe acute respiratory syndrome coronavirus 2); experiment: biochemical; settings: read-out: %inhibition
Where a name gives a salt, the structure may show the parent alone.
Everything with inhibition at 100 µM lower than 2% is Not satisfied; everything else, including exactly 2%, is Satisfied.

{"molecule": "Cc1ccc(NC(=O)c2ccc(CN3CCN(C)CC3)cc2)cc1Nc1nc(-c2cccnc2)cs1 [Masitinib (AB1010)]", "qualitative-label": "Satisfied"}
{"molecule": "CC(C(=O)O)c1ccc(C(=O)c2ccccc2)s1 (centres unmarked) [Tiaprofenic acid]", "qualitative-label": "Satisfied"}
{"molecule": "c1ccc([C@H]2CN3CCSC3=N2)cc1 [Levamisole hydrochloride]", "qualitative-label": "Not satisfied"}
{"molecule": "CCC(=O)O[C@]1(C(=O)SCF)[C@H](C)C[C@H]2[C@@H]3C[C@H](F)C4=CC(=O)C=C[C@]4(C)[C@@]3(F)[C@@H](O)C[C@@]21C [Fluticasone propionate]", "qualitative-label": "Satisfied"}
{"molecule": "C[C@H](CS)C(=O)N1CCC[C@H]1C(=O)O [Captopril]", "qualitative-label": "Not satisfied"}
{"molecule": "Cc1[nH]c(=O)c(C#N)cc1-c1ccncc1 [Milrinone]", "qualitative-label": "Not satisfied"}
{"molecule": "C=C1CC[C@@]2(O)[C@H]3Cc4ccc(O)c5c4[C@@]2(CCN3CC2CC2)[C@H]1O5 [Nalmefene HCl]", "qualitative-label": "Not satisfied"}
{"molecule": "CCNC1(C(N)=O)CCN(c2ncnc3c2nc(-c2ccccc2Cl)n3-c2ccc(Cl)cc2)CC1 [Otenabant (CP-945598) HCl]", "qualitative-label": "Satisfied"}

* * *

biological target: SARS-CoV-2 Mac1 (Severe acute respiratory syndrome coronavirus 2, UniProt P0DTD1); experiment: biochemical; settings: read-out: %inhibition
Structures can show the parent of a compound that is named as a salt. Numbered stars: 1 amine (or outer) side, 2 acyl side, 3 side chain; on linkers, the order of the positions; unused ones are H or OH. Bridge positions count the residues as written; N and C are the ends. Square brackets hold non-standard residues; d marks the D form. Peptide text beside a SMILES is read from it. * marks the point of attachment. hTyr(3S-OH,4S-OH,3'-OSO3H) = N[C@H](C(=O)O)[C@H](O)[C@@H](O)c1ccc(O)c(OS(=O)(=O)O)c1; Orn(4R-OH,5R-OH) = O=C([C@H](C[C@@H](O)[C@@H](O)N[*:3])N[*:1])[*:2]; Pro(3S-OH,4S-Me) = C[C@H]1CN[C@H](C(=O)O)[C@H]1O; X1 = CCCCCOc1ccc(-c2cc(-c3ccc(C(=O)*)cc3)no2)cc1; Gln(3R-OH) = NC(=O)C[C@@H](O)[C@H](N)C(=O)O; Hyp = O=C(O)[C@@H]1C[C@@H](O)CN1
inhibition at 100 µM values for the molecules below.
quantity-kind: inhibition at 100 µM (%)

{"molecule": "CO/N=C(\\C(=O)N[C@@H]1C(=O)N2C(C(=O)O)=C(C[N+]3(C)CCCC3)CS[C@H]12)c1csc(N)n1 [Cefepime Dihydrochloride Monohydrate]", "quantity-kind": "inhibition at 100 µM", "experimental-value": 0}
{"molecule": "CCCCCOc1ccc(-c2cc(-c3ccc(C(=O)N[C@H]4C[C@@H](O)[C@@H](O)NC(=O)[C@@H]5[C@@H](O)[C@@H](C)CN5C(=O)[C@H]([C@H](O)CC(N)=O)NC(=O)[C@H]([C@H](O)[C@@H](O)c5ccc(O)c(OS(=O)(=O)O)c5)NC(=O)[C@@H]5C[C@@H](O)CN5C(=O)[C@H]([C@@H](C)O)NC4=O)cc3)no2)cc1 [Micafungin Sodium] (X1-[Orn(4R-OH,5R-OH)]T[Hyp][hTyr(3S-OH,4S-OH,3'-OSO3H)][Gln(3R-OH)][Pro(3S-OH,4S-Me)]; lactam 1-C)", "quantity-kind": "inhibition at 100 µM", "experimental-value": 0}
{"molecule": "CCCCCOc1ccccc1/C(=C\\SC)n1ccnc1 [Neticonazole Hydrochloride]", "quantity-kind": "inhibition at 100 µM", "experimental-value": 0}
{"molecule": "CC(=O)Nc1cccc(-n2c(=O)n(C3CC3)c(=O)c3c(Nc4ccc(I)cc4F)n(C)c(=O)c(C)c32)c1 [Trametinib (GSK1120212)]", "quantity-kind": "inhibition at 100 µM", "experimental-value": 3.49}
{"molecule": "Cc1c(C)c2c(c(C)c1O)CCC(C)(COc1ccc(CC3SC(=O)NC3=O)cc1)O2 (stereo not shown) [Troglitazone (CS-045)]", "quantity-kind": "inhibition at 100 µM", "experimental-value": 5.13}
{"molecule": "Cc1ccc(-c2ncc(Cl)cc2-c2ccc(S(C)(=O)=O)cc2)cn1 [Etoricoxib]", "quantity-kind": "inhibition at 100 µM", "experimental-value": 0}
{"molecule": "COC(=O)Nc1nc2cc([S+]([O-])c3ccccc3)ccc2[nH]1 (stereo not shown) [Oxfendazole]", "quantity-kind": "inhibition at 100 µM", "experimental-value": 0}
